B1: PI4K2A (parent)
chain: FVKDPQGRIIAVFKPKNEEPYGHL

variants of: B1; test: protein stability index of a GFP-peptide fusion (GPS, HEK-293T) (PSI 1-6); higher = more stable; details: c terminus: a fixed tail appended;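 further: lentivirally expressed fusions sorted by FACS into six bins by GFP to DsRed ratio, PSI derived from sequencing read proportions per bin multiplied by bin number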
Outcome: label 1 for protein stability index of at least 2; label 0 for anything lower.

P5R :: label 1
I9E :: label 1
G7Q :: label 1
I10Q :: label 0

Qu. Hi, just wondering whether G7F shows protein stability index of 2 or higher.
Ans. label 1

Qu. Hi, just wondering whether G7R shows protein stability index of 2 or higher.
Ans. label 1

Qu. Hi, just wondering whether D4Q shows protein stability index of 2 or higher.
Ans. label 1

Qu. Hi, just wondering whether E19V shows protein stability index of 2 or higher.
Ans. label 0

Qu. Hi, just wondering whether A11Q shows protein stability index of 2 or higher.
Ans. label 1

Qu. Hi, just wondering whether E19N shows protein stability index of 2 or higher.
Ans. label 0
